- System: HEK293
- PROTOCOL_SUMMARY: Antiproliferative activity against HEK293 cells […] after 72 hrs by MTT assay
- Format: cell-based
- TEST_PARAMETERS: human, hek293, 72 h
MEASURED_PARAMETER: Activity

C[C@@H]1[C@H]2C3=CC[C@@H]4[C@@]5(C)C[C@@H](O)[C@H](O[C@@H]6OC[C@H](O)[C@H](O[C@@H]7OC[C@@H](O)[C@H](O)[C@H]7O)[C@H]6O)[C@@](C)(CO)[C@@H]5CC[C@@]4(C)[C@]3(C)CC[C@@]2(C(=O)O[C@@H]2O[C@H](CO[C@@H]3O[C@H](CO)[C@@H](O)[C@H](O)[C@H]3O)[C@@H](O)[C@H](O)[C@H]2O)CC[C@]1(C)O = Not Active
C[C@@H]1O[C@@H](OC[C@H]2O[C@@H](OC(=O)[C@]34CC[C@](C)(O)[C@H](C)[C@H]3C3=CC[C@@H]5[C@@]6(C)CC[C@H](O[C@@H]7OC[C@H](O)[C@H](O[C@@H]8OC[C@@H](O)[C@H](O)[C@H]8O)[C@H]7O)[C@@](C)(CO)[C@@H]6CC[C@@]5(C)[C@]3(C)CC4)[C@H](O)[C@@H](O)[C@@H]2O)[C@H](O)[C@H](O)[C@H]1O = Not Active
C[C@@H]1[C@H]2C3=CC[C@@H]4[C@@]5(C)C[C@@H](O)[C@H](O[C@@H]6OC[C@H](O)[C@H](O[C@@H]7OC[C@@H](O)[C@H](O)[C@H]7O)[C@H]6O)[C@@](C)(CO)[C@@H]5CC[C@@]4(C)[C@]3(C)CC[C@@]2(C(=O)O[C@@H]2O[C@H](CO)[C@@H](O)[C@H](O)[C@H]2O)CC[C@]1(C)O = Not Active
